# Tested on: PA-1 human ovary teratocarcinoma cells
# PROTOCOL SUMMARY: Cytotoxicity, resazurin metabolism assay, PA-1
# Format: cell-based
# RECORDED CONDITIONS: mean ± SD
// returns false (0) unless IC50 is strictly below 8 µM, in which case true (1)

[[record]]
compound = "C=C(C)C1CCC2(CO)CCC3(C)C(CCC4C5(C)CCC(OC6OC(CO)C(O)C(O)C6O)C(C)(C)C5CCC43C)C12 [Compound 26, 3-O-β-D-Mannopyranoside of Betulin]"
category_label = "true (1)"

[[record]]
compound = "CC1(C)CCC23CCC4(C)C(CCC5C6(C)CCC(OC7OC(CO)C(O)C(O)C7O)C(C)(C)C6CCC54C)C2C1OC3 [Compound 33, 3-O-β-D-Glucopyranoside of Allobetulin]"
category_label = "false (0)"

[[record]]
compound = "C=C(C)C1CCC2(C(=O)O)CCC3(C)C(CCC4C5(C)CCC(OC6OC(CO)C(O)C(O)C6O)C(C)(C)C5CCC43C)C12 (stereo not drawn)"
category_label = "true (1)"

[[record]]
compound = "C=C(C)[C@@H]1CC[C@]2(C(=O)OC)CC[C@]3(C)[C@H](CC[C@@H]4[C@@]5(C)CC[C@H](O[C@@H]6O[C@H](CO)[C@@H](O)[C@H](O)[C@H]6O)C(C)(C)[C@@H]5CC[C@]43C)[C@@H]12"
category_label = "false (0)"

[[record]]
compound = "C=C(C)[C@@H]1CC[C@]2(C(=O)OC)CC[C@]3(C)[C@H](CC[C@@H]4[C@@]5(C)CC[C@H](O[C@H]6OC[C@@H](O)[C@@H](O)[C@@H]6O)C(C)(C)[C@@H]5CC[C@]43C)[C@@H]12"
category_label = "false (0)"

